assay.target: human TREM2/DAP12 fusion protein (human, UniProt O43914 41-113, limits assumed)
Sequence (O43914 other isoform, or with tags, fused parts or gaps limits assumed): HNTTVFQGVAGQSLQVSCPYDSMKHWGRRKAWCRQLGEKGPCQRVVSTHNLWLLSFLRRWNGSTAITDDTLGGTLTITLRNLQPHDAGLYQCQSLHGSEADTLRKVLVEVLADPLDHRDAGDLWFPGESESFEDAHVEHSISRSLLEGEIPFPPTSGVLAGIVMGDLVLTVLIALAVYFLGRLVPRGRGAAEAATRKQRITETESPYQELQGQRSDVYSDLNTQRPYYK
test.description: cell-based or functional assay
property.measured: BW Luc assay soluble 7.3 nM IgG, FOC (FOC)
Please respond with the number in FOC and leave the unit unwritten.

Here's what some known entries look like.
• AL2p-52 (antibody, V domains shown, Fab and IgG formats under one id) VH: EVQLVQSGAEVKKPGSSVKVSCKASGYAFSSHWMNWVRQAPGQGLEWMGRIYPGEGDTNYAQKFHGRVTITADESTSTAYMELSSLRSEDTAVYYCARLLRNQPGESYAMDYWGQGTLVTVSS VL: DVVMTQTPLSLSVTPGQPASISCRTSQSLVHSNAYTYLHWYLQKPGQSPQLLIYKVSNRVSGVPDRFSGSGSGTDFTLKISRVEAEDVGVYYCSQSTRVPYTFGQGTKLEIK = 1.75
• AL2p-39 (antibody, V domains shown, Fab and IgG formats under one id) VH: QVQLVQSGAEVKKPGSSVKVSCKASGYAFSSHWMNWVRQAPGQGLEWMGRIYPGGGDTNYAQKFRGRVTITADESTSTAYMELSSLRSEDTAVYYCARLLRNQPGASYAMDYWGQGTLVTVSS VL: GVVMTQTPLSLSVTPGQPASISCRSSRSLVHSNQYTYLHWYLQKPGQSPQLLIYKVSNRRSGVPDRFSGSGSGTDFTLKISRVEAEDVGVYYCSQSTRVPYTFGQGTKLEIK = 3.81
• AL2p-47 (antibody, V domains shown, Fab and IgG formats under one id (explicit huIgG1 is m97); also called AL2-47) VH: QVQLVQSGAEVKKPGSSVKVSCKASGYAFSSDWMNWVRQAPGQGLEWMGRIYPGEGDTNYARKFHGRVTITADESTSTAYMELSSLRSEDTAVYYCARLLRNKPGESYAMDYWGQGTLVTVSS VL: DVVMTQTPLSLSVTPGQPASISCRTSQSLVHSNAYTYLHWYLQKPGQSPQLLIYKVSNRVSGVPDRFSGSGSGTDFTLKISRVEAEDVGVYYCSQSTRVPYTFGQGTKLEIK = 3.48
• AL2p-46 (antibody, V domains shown, Fab and IgG formats under one id) VH: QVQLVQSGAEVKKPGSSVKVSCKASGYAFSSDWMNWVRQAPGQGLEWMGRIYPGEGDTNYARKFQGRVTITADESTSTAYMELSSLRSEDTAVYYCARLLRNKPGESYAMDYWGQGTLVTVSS VL: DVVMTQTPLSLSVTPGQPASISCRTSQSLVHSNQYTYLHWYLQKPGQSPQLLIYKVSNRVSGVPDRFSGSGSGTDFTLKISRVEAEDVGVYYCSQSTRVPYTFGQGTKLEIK = 2.98

Now look at this one.
Q) Tell me the measured BW Luc assay soluble 7.3 nM IgG, FOC of AL2p-45 (antibody, V domains shown, Fab and IgG formats under one id) VH: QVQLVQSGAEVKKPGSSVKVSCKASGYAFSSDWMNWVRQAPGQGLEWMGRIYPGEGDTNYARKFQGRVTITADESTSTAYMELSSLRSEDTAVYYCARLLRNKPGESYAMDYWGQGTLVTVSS VL: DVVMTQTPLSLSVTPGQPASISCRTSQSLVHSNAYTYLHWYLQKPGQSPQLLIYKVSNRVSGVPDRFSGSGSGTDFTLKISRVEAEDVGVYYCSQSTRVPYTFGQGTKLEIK , please.
A) 2.38
